Tested on: PPARg DBDmut:RXRa IVT, anti-PPARg (DBD mutation: PPARg1 K132A/R137A, NR concentration 270 nM, RXRa partner concentration 90 nM)
Procedure summary: PBM binding z-score (relative to random genomic background probes); higher = stronger binding; sequences stand for … in GC…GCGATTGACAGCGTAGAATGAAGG
Consider the following partition of reported PBM binding z-score into named classes: bin A (below -0.5), bin B (-0.5 to below 0.5), bin C (0.5 or more)

In [3]: df
Out[3]:
                      sequence_content  assigned_class
 0  TATACAGGGTCATAGGCCAGAGTACGAATGTCGA           bin C
 1  TCAGACAGGTGAAGGTAACGCAGGTACGCAGTCG           bin C
 2  CCAGACAGGTGAAAGTTAACTCAGTCTGGTACGC           bin A
 3  TAGCCTAGGTCCGATCGGGCCAGTATACGCTATA           bin A
 4  TAGCCTAGGTCATTCAGGGGACAGTATAGAAAGC           bin B
 5  AGAATGAGGTTATACGTAGATCAGGGGAGAAAGT           bin C
 6  CGAACTAGGTCATTGGCAGGACAGTGAATAGTAA           bin C
 7  CCTACTGGGCCAAAGGTCATTTATTCCAATGCTC           bin C
 8  GCTGCTGGGTCAGGTTGGTCAGCTAACGGGTACG           bin A
 9  ACTAGTTGGTCAGCTGAGGTCACACAGAATTCGG           bin B
10  CTTCGGAGGACAACAGGAGGTCAGAGCTGCCAGA           bin A
11  CCTACTGGGCCAAAGGTCATTGGTTCCAATGCTC           bin B
12  TTACCAAGGTGAAGGTCGTTGATCCCTCTGTAGA           bin C
13  TCTCGGAGTACACGAAGGTCAGAGCTTTCCAGAG           bin A
14  CCGACTGGGGCATAAAGTTACCATAAGCCAGCCC           bin A
15  AATACATGGTCACTAGGCCAGAGTAGGTACGAAT           bin C
16  CCTCGGAGGACTACAGGAGGTCAGAGCTGCCAGA           bin A
17  TAGCCTAGATCATTGGGCCAGTATAGTACGCATC           bin B
18  TCTGCTAGGTCAACGAGGGTCAGCTAATCTGCTA           bin B
19  GATACTGGGTCAGCTAGAGGCCAGAGTATGGAAA           bin B
20  CCGACTGGGCCACGAAAGGTCATTGATTCAGTGA           bin A
21  CCGACTGAGGCAAGGTTACCATAACGCACAGCCA           bin B
22  ATCGAAAGGTCGACGAGGTGAGTGTACACCGTTT           bin C
23  TCTTCTAGATCAGCAGGTTAAGAAAGCTGGCCAA           bin A
24  TGAATGAGGTTATAAGATCAGGGATCGTTGCAAA           bin C
25  ACTCGGAGGACAAAGGACAGAGCTACGCCAGTGA           bin B
